testedSystem: TDP-43 (Homo sapiens, UniProt Q13148 1-414)
Sequence (Q13148 whole entry): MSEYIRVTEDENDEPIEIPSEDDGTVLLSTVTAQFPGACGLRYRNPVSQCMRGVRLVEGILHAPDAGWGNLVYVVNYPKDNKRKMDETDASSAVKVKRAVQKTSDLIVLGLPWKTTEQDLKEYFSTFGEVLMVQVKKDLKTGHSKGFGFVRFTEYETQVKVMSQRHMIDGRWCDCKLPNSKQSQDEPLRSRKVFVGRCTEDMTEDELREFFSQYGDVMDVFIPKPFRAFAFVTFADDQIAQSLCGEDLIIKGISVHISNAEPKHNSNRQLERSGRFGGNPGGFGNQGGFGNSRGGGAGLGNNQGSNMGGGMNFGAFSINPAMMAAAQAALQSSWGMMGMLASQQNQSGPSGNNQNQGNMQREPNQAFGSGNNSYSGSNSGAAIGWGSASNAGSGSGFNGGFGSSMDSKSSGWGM
assayOverview: RNA Bind-n-Seq with designed 260-mer pool; 25 mM Tris-HCl, 150 mM KCl, 3 mM MgCl2, BSA (printed 500 mg/mL), 20 units/mL SUPERase IN; pH not stated; 500 nM RNA pool, 1 h, 4 C; TDP-43 5, 50, 500 nM; high values mean tight binding
conditionSummary: protein: recombinant; tags: SBP (GST cleaved off with PreScission; pGEX-GST-SBP)
Whole data set: some 9,900 sequences, median “r (bound/input frequency ratio)” near 0.7, cut for the highest 2% near 6.5. This excerpt belongs to a sample that is enriched for the highest values.
recordedEndpoint: binding signal

Please list binding signal recorded for the binder ENSMUSG00000042529.497|Kcnj12 (ssRNA) RNA: GGGAGUUCUACAGUCCGACGAUCGCUUCGAUAUCCGCAUGCUAGGGCCCCUGCAGCUGGACCAUGUACAGGGCUCCCUGGGGCUUGUCCUCAGGGGCAGAGAAGGACAUGGUGGCAGCAGCACUGAGAACAGGAGCAUGGCCUCUCUCAGACCCCAGGGCAGUCAUUCAGUCUUUUCCAUGGACACUCCCCACCGCUCCACAUACUGCCUCCGCCUCAUUCUUGGGCUCUUCCUGCCUUGCUGUCUUUCCUUCCACACAGAAGCACCAAGCAUCAUCCAUUCCCAUAGGCAAGCCCAGGGCACCUCUUGCGGUCGCACUAGUGUGGAAUUCUCGGGUGUCAAGG
0.929 R (bound/input frequency ratio)

Provide one value: measured binding signal of ENSMUSG00000032194.16|Kank2 (ssRNA) RNA: GGGAGUUCUACAGUCCGACGAUCGCUUCGAUAUCCGCAUGCUACAGCCACAAGCCACGCAUCAAACCGUCCCUCCUCCAUCCCUCUGUCCCAUUCUGCCUCGGCAUUCCUCAGCCCCUGAACUUCCCUGAGGGAGCCCUGACAUCUACCAGGCUCAAGCUCCUGGAAGCCUUUCCCAGCACCCUGGGUUCAAAGCCAGAAAGCCAAGCUACAUUCUCCUCCCAGUUGGCACCAGUUGACAACGCCUUGGGUGUGGGUUUCUUGUAAAGAACAUAGAGAACAAUCAGCCGGCAAUUAUGGGAGGCUCUUGCGGUCGCACUAGUGUGGAAUUCUCGGGUGUCAAGG
1.15 R (bound/input frequency ratio)
